Would you mind telling me the reported LC50 (concentration killing 50% of cells) of each entry?
Tested on: M14
Assay explanation: Growth inhibition of human M14 cells incubated for 48 hrs by sulforhodamine B assay
Assay type: functional

| Chemical string | System under test | Value measured |
| --- | --- | --- |
| CN1CCc2nc3sc(C(N)=O)c(N)c3c(-c3cccs3)c2C1 | M14 | > 100 µM |
| CCc1ccccc1NC(=O)c1sc2nc3c(cc2c1N)C(=O)CCC3 | M14 | > 100 µM |

Exercise: Answer with reported LC50 (concentration killing 50% of cells) of Nc1c(C(=O)Nc2ccccc2)sc2nc3c(cc12)CN(Cc1ccccc1)CC3
Key: > 100 µM

###

Test system: SNB-75
Assay explanation: Growth inhibition of human SNB-75 cells assessed as cell growth at 1 uM incubated for 48 hrs by sulforhodamine B assay relative to control
Format: functional
Particulars: read-out: Activity
Measurement label: growth at 1 µM (%)
Answers are plain numbers, in %.

| Chemical string | Measurement label | Endpoint unit | Value measured |
| --- | --- | --- | --- |
| CN1CCc2nc3sc(C(N)=O)c(N)c3c(-c3cccs3)c2C1 | growth at 1 µM | % | 99 |

Quick batch: growth at 1 µM for everything below.
1. COc1cccc(NC(=O)c2sc3nc4c(cc3c2N)CN(Cc2ccccc2)CC4)c1
2. Cc1ccc(NC(=O)c2sc3nc4c(cc3c2N)C(=O)CCC4)cc1C
3. CCc1ccccc1NC(=O)c1sc2nc3c(cc2c1N)C(=O)CCC3
4. Cc1cccc(NC(=O)c2sc3nc4c(cc3c2N)C(=O)CCC4)c1
5. Nc1c(C(=O)Nc2ccccc2)sc2nc3c(cc12)CN(Cc1ccccc1)CC3
6. Cc1cc(C)c(NC(=O)c2sc3nc4c(cc3c2N)CN(Cc2ccccc2)CC4)c(C)c1

Key:
1: 77; 2: -7; 3: -8; 4: 6; 5: 64; 6: 79

Exercise: Answer with reported growth at 1 µM of CCc1cccc(C)c1NC(=O)c1sc2nc3c(cc2c1N)C(=O)CCC3
Key: -2

###

Would you mind telling me the reported growth at 10 µM of each entry?
Tested on: NCI-H522
Assay explanation: Growth inhibition of human NCI-H522 cells assessed as cell growth at 10 uM incubated for 48 hrs by sulforhodamine B assay relative to control
Assay type: functional
Particulars: read-out: Activity
One number for each entry, in %.

Example entries and their recorded answers appear below.
| Chemical string | System under test | growth at 10 µM [%] |
| --- | --- | --- |
| CN1CCc2nc3sc(C(N)=O)c(N)c3c(-c3cccs3)c2C1 | NCI-H522 | 9 |
| CC1(C)CCc2cc(-c3ccn(S(=O)(=O)c4ccc(C(C)(C)C)cc4)n3)ccc2O1 | NCI-H522 | 66.5 |
| Cc1cccc(NC(=O)c2sc3nc4c(cc3c2N)C(=O)CCC4)c1 | NCI-H522 | -22 |
| O=S(=O)(c1ccc(Br)cc1)n1ccc(-c2ccc(OCCCF)cc2)n1 | NCI-H522 | 79.4 |
| COc1ccc(S(=O)(=O)n2ccc(-c3ccc4c(c3)CCC(C)(C)O4)n2)cc1 | NCI-H522 | 55.6 |
| CC(=O)c1ccc2c(N)c(C(=O)Nc3ccccc3)sc2n1 | NCI-H522 | 103 |

Quick batch: growth at 10 µM for everything below.
1. Cc1cc(C)c(NC(=O)c2sc3nc4c(cc3c2N)CN(Cc2ccccc2)CC4)c(C)c1
2. CC(C)N1CCc2nc3sc(C(=O)Nc4ccccc4)c(N)c3cc2C1

Key:
[-13, 104]

###

Tested on: SK-MEL-2
Assay explanation: Growth inhibition of human SK-MEL-2 cells assessed as cell growth at 10 uM incubated for 48 hrs by sulforhodamine B assay relative to control
Assay type: functional
Particulars: read-out: Activity
Short version: growth at 10 µM at least 90% is Fulfilled, less is Not fulfilled.

Some solved cases for reference:
| Chemical string | Assigned category |
| --- | --- |
| CC1(C)CCc2cc(-c3ccn(S(=O)(=O)c4ccc(C(C)(C)C)cc4)n3)ccc2O1 | Not fulfilled |
| CC(=O)Nc1ccc(S(=O)(=O)n2ccc(-c3ccc4c(c3)CCC(C)(C)O4)n2)cc1 | Not fulfilled |

Exercise: Does the compound O=S(=O)(c1ccccc1)n1ccc(-c2ccc3c(c2)CCO3)n1 have recorded growth at 10 µM that is 90% or more?
Key: Not fulfilled

Exercise: Does the compound CC1(C)CCc2cc(-c3ccn(S(=O)(=O)c4ccc(Cl)cc4Cl)n3)ccc2O1 have recorded growth at 10 µM that is 90% or more?
Key: Not fulfilled

Exercise: Does the compound CC(=O)c1cccc(NC(=O)c2sc3nc4c(cc3c2N)C(=O)CCC4)c1 have recorded growth at 10 µM that is 90% or more?
Key: Fulfilled

###

System: KM12
Assay explanation: Growth inhibition of human KM12 cells incubated for 48 hrs by sulforhodamine B assay
Format: functional
Measurement label: LC50

Example entries and their recorded answers appear below.
| Chemical string | Value measured |
| --- | --- |
| Cc1cc(C)c(NC(=O)c2sc3nc4c(cc3c2N)CN(Cc2ccccc2)CC4)c(C)c1 | > 100 µM |
| CN1CCc2nc3sc(C(N)=O)c(N)c3c(-c3cccs3)c2C1 | > 100 µM |

Alright, here's another molecule for you.
Exercise: Answer with reported LC50 of Nc1c(C(=O)Nc2ccccc2)sc2nc3c(cc12)CN(Cc1ccccc1)CC3
Key: > 100 µM

###

Would you mind telling me the reported growth at 100 µM of each entry?
Tested on: CAKI-1
Assay explanation: Growth inhibition of human CAKI-1 cells assessed as cell growth at 100 uM incubated for 48 hrs by sulforhodamine B assay relative to control
Assay type: functional
Particulars: read-out: Activity
Numbers only, in %.

| Chemical string | Endpoint unit | growth at 100 µM |
| --- | --- | --- |
| COc1cccc(NC(=O)c2sc3nc4c(cc3c2N)CN(Cc2ccccc2)CC4)c1 | % | 11 |
| Nc1c(C(=O)Nc2ccccc2)sc2nc3c(cc12)CN(Cc1ccccc1)CC3 | % | 36 |

Alright, here's another compound for you.
Exercise: Answer with reported growth at 100 µM of CCc1cccc(C)c1NC(=O)c1sc2nc3c(cc2c1N)C(=O)CCC3
Key: 12

###

Would you mind telling me the reported growth at 100 µM of each entry?
Test system: SF-295
Assay explanation: Growth inhibition of human SF-295 cells assessed as cell growth at 100 uM incubated for 48 hrs by sulforhodamine B assay relative to control
Assay type: functional
Particulars: read-out: Activity
Answers are plain numbers, in %.

| Chemical string | growth at 100 µM / % |
| --- | --- |
| CCc1ccccc1NC(=O)c1sc2nc3c(cc2c1N)C(=O)CCC3 | -2 |
| Cc1ccc(NC(=O)c2sc3nc4c(cc3c2N)C(=O)CCC4)cc1C | 12 |
| Nc1c(C(=O)Nc2ccccc2)sc2nc3c(cc12)CN(Cc1ccccc1)CC3 | 12 |
| Cc1cc(C)c(NC(=O)c2sc3nc4c(cc3c2N)CN(Cc2ccccc2)CC4)c(C)c1 | -2 |
| COc1cccc(NC(=O)c2sc3nc4c(cc3c2N)CN(Cc2ccccc2)CC4)c1 | -52 |
| CCc1cccc(C)c1NC(=O)c1sc2nc3c(cc2c1N)C(=O)CCC3 | 1 |
| CN1CCc2nc3sc(C(N)=O)c(N)c3c(-c3cccs3)c2C1 | 4 |

Alright, here's another molecule for you.
Exercise: Answer with reported growth at 100 µM of Cc1cccc(NC(=O)c2sc3nc4c(cc3c2N)C(=O)CCC4)c1
Key: 7

###

System: A549
Assay explanation: Growth inhibition of human A549/ATCC cells assessed as cell growth at 0.01 uM incubated for 48 hrs by sulforhodamine B assay relative to control
Format: functional
Particulars: read-out: Activity
Would you mind telling me the reported growth at 0.01 µM of each entry?
Answers are plain numbers, in %.

Example entries and their recorded answers appear below.
| Chemical string | Measurement label | Value measured |
| --- | --- | --- |
| COc1cccc(NC(=O)c2sc3nc4c(cc3c2N)CN(Cc2ccccc2)CC4)c1 | growth at 0.01 µM | 96 |
| Cc1cc(C)c(NC(=O)c2sc3nc4c(cc3c2N)CN(Cc2ccccc2)CC4)c(C)c1 | growth at 0.01 µM | 96 |
| Cc1cccc(NC(=O)c2sc3nc4c(cc3c2N)C(=O)CCC4)c1 | growth at 0.01 µM | 92 |
| CCc1cccc(C)c1NC(=O)c1sc2nc3c(cc2c1N)C(=O)CCC3 | growth at 0.01 µM | 96 |
| Nc1c(C(=O)Nc2ccccc2)sc2nc3c(cc12)CN(Cc1ccccc1)CC3 | growth at 0.01 µM | 98 |
| CN1CCc2nc3sc(C(N)=O)c(N)c3c(-c3cccs3)c2C1 | growth at 0.01 µM | 99 |

Quick batch: growth at 0.01 µM for everything below.
1. CCc1ccccc1NC(=O)c1sc2nc3c(cc2c1N)C(=O)CCC3
2. Cc1ccc(NC(=O)c2sc3nc4c(cc3c2N)C(=O)CCC4)cc1C

Key:
1. 97
2. 100
